All figures here come from ChEMBL document CHEMBL1124130.

Target: UniProt P08482
Assay: biochemical
Description: Binding affinity towards Muscarinic acetylcholine receptor M1 of cerebral cortex
pIC50: −log10 of the molar value.
measurement-name: pIC50

The cases that follow already have their pIC50 on record.
CN1CCC(NC(=O)N2c3ccccc3C(=O)Nc3cccnc32)CC1 6.70
CN1CCC(CC(=O)N2c3ccccc3C(=O)Nc3cccnc32)CC1 7.15
CN1CCN(NC(=O)N2c3ccccc3C(=O)Nc3cccnc32)CC1 7.22
CN1CCN(CC(=O)N2c3ccccc3NC(=O)c3cccnc32)CC1 6.52

[a] CN1CCN(CC(=O)N2c3ccccc3NC(=O)c3ccccc32)CC1
[b] CN1CCN(CC(=O)N2c3ccccc3NC(=O)c3cscc32)CC1
# input Of a and b , which one carries the higher reported pIC50? Select an item and report its label.
# output a

###

Biological target: Muscarinic acetylcholine receptor M1 (Rattus norvegicus)
Test: Binding affinity towards muscarinic receptor of cerebral cortex containing Muscarinic acetylcholine receptor M1
Format: tissue-based
measurement-name: IC50 (nM)

// solved cases for IC50 follow
compound	result-value
CN1CCCC(CC(=O)N2c3ccccc3C(=O)Nc3cccnc32)CC1 (configuration not stated)	100
CN(C)CCCC(=O)N1c2ccccc2C(=O)Nc2cccnc21	50
CN1CCCCC1CC(=O)N1c2ccccc2C(=O)Nc2cccnc21 (configuration not stated)	10
CN(C)CCC(=O)N1c2ccccc2C(=O)Nc2cccnc21	200
CN1CCN(CCC(=O)N2c3ccccc3C(=O)Nc3cccnc32)CC1	10000

[P] CN1CCCC(CC(=O)N2c3ccccc3C(=O)Nc3cccnc32)C1 (configuration not stated)
[Q] CN1CCC(CC(=O)N2c3ccccc3C(=O)Nc3cccnc32)C1 (configuration not stated)
# input From the recorded data, which exceeds the other in IC50: P or Q ? Respond with the label that goes with your answer.
# output P

###

Sequence of the target: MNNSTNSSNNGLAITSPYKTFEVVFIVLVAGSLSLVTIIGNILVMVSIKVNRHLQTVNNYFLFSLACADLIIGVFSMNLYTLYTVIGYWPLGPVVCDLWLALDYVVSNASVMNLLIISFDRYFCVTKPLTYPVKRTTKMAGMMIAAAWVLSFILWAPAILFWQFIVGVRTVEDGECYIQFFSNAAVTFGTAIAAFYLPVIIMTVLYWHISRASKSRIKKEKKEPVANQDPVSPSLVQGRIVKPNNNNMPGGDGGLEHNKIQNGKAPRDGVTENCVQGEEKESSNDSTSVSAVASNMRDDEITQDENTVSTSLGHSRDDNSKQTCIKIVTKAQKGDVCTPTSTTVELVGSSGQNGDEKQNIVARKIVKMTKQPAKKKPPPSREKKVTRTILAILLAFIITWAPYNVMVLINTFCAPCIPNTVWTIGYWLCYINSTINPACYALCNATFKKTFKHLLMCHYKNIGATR
pIC50: −log10 of the molar value.
measurement-name: pIC50

compound	pIC50
CN1CCN(NC(=O)N2c3ccccc3C(=O)Nc3cccnc32)CC1	6.05
CN(C)CCC(=O)N1c2ccccc2C(=O)Nc2cccnc21	6.70
CN1CCN(CC(=O)N2c3ccccc3NC(=O)c3ccccc32)CC1	7.00
CN1CCN(CCC(=O)N2c3ccccc3C(=O)Nc3cccnc32)CC1	4.92
CN1CCCC(CC(=O)N2c3ccccc3C(=O)Nc3cccnc32)CC1 (configuration not stated)	6.82

[a] CN1CCC(CC(=O)N2c3ccccc3C(=O)Nc3cccnc32)C1 (configuration not stated)
[b] CN1CCCC(CC(=O)N2c3ccccc3C(=O)Nc3cccnc32)C1 (configuration not stated)
# input Between a and b , which one shows the smaller pIC50 number? Give the label under which the chosen entry appears.
# output b

###

Assay: Partition coefficient (log P) at pH 7.4
Format: physicochemical
Conditions: octanol/water
measurement-name: logD

Please review the following examples before continuing.
molecule	measurement-name	result-value
CN1CCN(CC(=O)N2c3ccccc3NC(=O)c3ccccc32)CC1	logD	0.11
CN1CCN(CC(=O)N2c3ccccc3NC(=O)c3cccnc32)CC1	logD	-0.42

[P] CN1CCN(CC(=O)N2c3ccccc3C(=O)Nc3cccnc32)CC1 [PIRENZEPINE]
[Q] CN1CCN(CC(=O)N2c3ccccc3NC(=O)c3cscc32)CC1
# input Hi there, can you help? I need to know whether P or Q has lower measured logD. Use the label to indicate which entry you chose.
# output P

###

Target: Muscarinic acetylcholine receptor M1 (Rattus norvegicus, UniProt P08482)
Sequence (P08482 whole entry): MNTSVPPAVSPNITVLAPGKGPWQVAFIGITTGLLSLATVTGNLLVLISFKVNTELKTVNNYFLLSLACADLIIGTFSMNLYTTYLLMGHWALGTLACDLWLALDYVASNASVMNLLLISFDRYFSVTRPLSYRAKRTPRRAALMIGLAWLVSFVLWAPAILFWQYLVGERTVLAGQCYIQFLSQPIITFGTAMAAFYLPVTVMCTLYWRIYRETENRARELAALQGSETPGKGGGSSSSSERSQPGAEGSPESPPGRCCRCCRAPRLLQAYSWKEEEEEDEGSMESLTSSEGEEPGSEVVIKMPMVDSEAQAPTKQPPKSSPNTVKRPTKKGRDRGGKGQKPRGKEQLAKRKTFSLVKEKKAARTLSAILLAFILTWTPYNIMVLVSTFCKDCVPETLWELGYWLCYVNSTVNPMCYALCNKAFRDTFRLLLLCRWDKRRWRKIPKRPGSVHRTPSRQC
Experiment: biochemical
measurement-name: IC50 (nM)

[a] CN(C)CC(=O)N1c2ccccc2C(=O)Nc2cccnc21
[b] CN1CCN(C(=O)N2c3ccccc3C(=O)Nc3cccnc32)CC1
[c] CN1CCC(OC(=O)N2c3ccccc3C(=O)Nc3cccnc32)CC1
[d] CN(C)CCCCC(=O)N1c2ccccc2C(=O)Nc2cccnc21
# input Give the descending IC50 ranking for the 4 molecules listed above. I would appreciate it if you listed the labels in the requested order.
# output a, d, b, c
